Readout Kind: melting point

Nc1ncnc2c1c(-c1ccc(Oc3ccccc3CN3CCOCC3)cc1)cn2C1CCOC1 (stereo not given); 169 to 171 °C

Record `Cc1nc(N)sc1-c1ccnc(Nc2ccc(N3CCSCC3)cc2)n1` . Reported melting point: 180 to 182 °C

Record C=CC(=O)NC(=O)N1CC1C#N (stereo not given) . Reported melting point: 158 to 160 °C

Record CCOC(=O)CN1CC2CCC(=O)N2C1=O (stereo not given) . Reported melting point: 99 to 101 °C

Record `Nc1nc(N)nc(-c2csc(-c3ccc(C(F)(F)F)cc3)n2)n1` . Reported melting point: > 260 °C

Record `CSc1nnc(C(C)(C)C)c(=O)n1C` . Reported melting point: 90 to 100 °C

Record `CCOC(=O)CCNC(=O)c1cn2nc(NCCCN3CCC(OC(c4ccccc4)c4ccccc4)CC3)ccc2n1` . Reported melting point: 83 to 86 °C

Record `CCn1c(-c2ccnc3ccccc23)nc(-c2ccncc2)c1-c1ccc(Cl)cc1` . Reported melting point: 167 to 169 °C

Record CC(C)(C)NC(=O)C(O)c1cccc(Cl)c1 (stereo not given) . Reported melting point: 93 to 99 °C

Record COC(=O)C1=C(COCCn2c(C)nc(C)c2C)NC(C)=C(C(=O)Nc2ccccc2)C1c1ccccc1Cl (stereo not given) . Reported melting point: 135 to 140 °C

* * *

Readout Kind: melting point

These recorded examples may help you get a feel for the data.
CCCN1CCc2[nH]c3ccc4scc(C)c4c3c2C1; 169 °C
C/C(=C\C=C(c1ccccc1)c1ccccc1)C(=O)O; 184 to 186 °C
CC(=O)COc1nc(N2CCCCC2)c2nc(OCC(C)=O)nc(N3CCCCC3)c2n1; 188 to 189 °C

Record `NC(=O)CCCSc1nccc(NC(N)=NCC(F)(F)F)n1` . Reported melting point: 202 to 203 °C

Record FC1CNC(c2ccc3c(c2)OCO3)c2[nH]c3ccccc3c21 (stereo unspecified) . Reported melting point: 172 °C

Record `Cc1ccc(F)cc1C(=O)Nc1ccc(C(=O)N2Cc3ccccc3Oc3ccccc32)cn1` . Reported melting point: 180 to 186 °C

Record `CC(=O)Nc1ccccc1NS(=O)(=O)c1cc(C(=O)O)cc(NCc2ccco2)c1Oc1ccccc1` . Reported melting point: 207 to 210 °C

* * *

Readout Kind: melting point

These recorded examples may help you get a feel for the data.
CCCCN(CCCOc1ccc(S(=O)(=O)c2c(C(C)C)cn3ccccc23)cc1)C(C)c1ccc(OC)c(OC)c1 (stereo unspecified); 108 to 110 °C
C=Cc1nc2cc(Br)ccc2o1; 55 to 56 °C

Record `CCCCOc1nc(N)c2[nH]c(=O)n(CCCNc3cccc(CC(=O)OC)c3)c2n1` . Reported melting point: 208 to 209 °C

Record `O=C(NCC1CCCC1)c1ccc2cc[nH]c2c1` . Reported melting point: 148 to 150 °C

* * *

Quick reference: melting point of the listed items.

O=C(Nc1ccccc1)c1ccc2c(c1)S(=O)(=O)NCN2C1CC1; 268 to 270 °C

Record `O=C1/C(=C(\NCCO)c2ccccc2)Sc2ccccc21` . Reported melting point: 122 to 123 °C

Record `COC(=O)c1cc(-c2ccc(OC)c(F)c2)nn(CC(C)C)c1=O` . Reported melting point: 119 to 121 °C

Record `O=C1N=c2cc(O)c(O)c(O)c2=NC1=O` . Reported melting point: > 350 °C

Record `C=CCOc1cccc(C(=O)CCC(=O)OC)c1` . Reported melting point: 30 to 32.5 °C

Record COc1ccc(Cl)cc1C(O)C(N)=O (configuration not stated) . Reported melting point: 121 to 123 °C

Record `CC(C)(C)c1cc(/C=C/C(=O)O)n(Cc2ccc(C(F)(F)F)cc2Cl)n1` . Reported melting point: 175 to 176 °C

Record `CCCCC1(C(=O)Nc2ccc(Oc3ccc(Cl)cc3)c(C(F)(F)F)c2)CC1` . Reported melting point: 104 to 106 °C
